- Target: T1, G-CSF Receptor (G-CSFR) (R&D systems 381-GR-050/CF), recombinant human (human, UniProt Q99062 25-627, limits assumed)
- T1 construct: Bought protein, amine-coupled to a CM5 chip; also called rhG-CSFR; human G-CSF receptor
- T1 sequence (looked up): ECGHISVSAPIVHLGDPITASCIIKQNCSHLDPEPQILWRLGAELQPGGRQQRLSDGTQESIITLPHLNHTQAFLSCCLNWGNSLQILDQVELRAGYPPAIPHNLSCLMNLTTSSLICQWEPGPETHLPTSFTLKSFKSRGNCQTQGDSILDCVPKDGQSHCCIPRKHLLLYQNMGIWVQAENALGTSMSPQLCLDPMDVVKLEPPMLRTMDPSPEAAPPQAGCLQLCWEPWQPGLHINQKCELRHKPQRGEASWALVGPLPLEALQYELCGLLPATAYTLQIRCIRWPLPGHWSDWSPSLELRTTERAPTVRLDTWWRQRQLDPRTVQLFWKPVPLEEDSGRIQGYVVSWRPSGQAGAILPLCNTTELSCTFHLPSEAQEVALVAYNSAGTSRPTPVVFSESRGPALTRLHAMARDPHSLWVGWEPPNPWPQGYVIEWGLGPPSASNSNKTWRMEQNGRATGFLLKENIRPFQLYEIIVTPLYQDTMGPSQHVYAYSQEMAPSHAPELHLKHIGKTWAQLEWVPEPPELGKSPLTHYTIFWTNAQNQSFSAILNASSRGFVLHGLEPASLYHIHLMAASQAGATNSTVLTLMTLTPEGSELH
- Protocol text: SPR (Biacore), G-CSFR immobilised on the chip, diSohair2 250 nM - 4000 nM as analyte, five traces with binding model fit [panel B]
Reported property: pKd
Lab note — pKd values are minus log10 of concentrations in M.

For Disohair_2 (designed binder, Expressed with an N-terminal hexa-His-tag and thrombin site) MTSDYIIEQIQRKQEEARLKVEEQERKLEAVKEASKRGVSSDQLLNLILDLADIITTLIQIIEESNEAIKELIKNQ , write its pKd. 5.34
